Test system: SN12C renal
Assay: NCI-60 one-dose screen, 48 h (100 = growth as untreated, 0 = no growth, -100 = all killed)
Conditions: 10 µM unless noted
This is part of a sample that, as a whole, favours compounds with a hit. Of some 83,000 tested, about 20% had one in any assay.
quantity.measured: growth (%)

[[record]]
molecule = "COC(=O)c1c2c(c(C)[n+]([O-])c1C)C(=O)C=C(NCc1ccc(Cl)cc1)C2=O"
scale_unit = "%"
meas_value = -84.9

[[record]]
molecule = "O=C(NC1CC1)c1cc2n(n1)CC(c1ccccc1)N2 (stereo unspecified)"
scale_unit = "%"
meas_value = 102

[[record]]
molecule = "NC(=O)c1nc2c([nH]c1=O)CCCC2"
scale_unit = "%"
meas_value = 107

[[record]]
molecule = "COc1ccc(-c2csc3c2-n2cccc2C3=O)cc1O"
scale_unit = "%"
meas_value = 29.6

[[record]]
molecule = "CCCN(CCC)c1ccc(/C=C/c2ccc3cc(OCC)ccc3n2)cc1"
scale_unit = "%"
meas_value = 90.7

[[record]]
molecule = "NC(=O)c1cc(I)ccc1NC(=O)COc1ccc(Cl)cc1Cl"
scale_unit = "%"
meas_value = 103

[[record]]
molecule = "COC(=O)[C@H]1CCCN1C(=O)[C@H]1CCCN1C(=O)[C@@H](Cc1c[nH]c2ccccc12)NC(=S)Nc1cc(C(F)(F)F)cc(C(F)(F)F)c1"
scale_unit = "%"
meas_value = 43.2

[[record]]
molecule = "O=c1nc(NO)[nH]c(=O)n1Cc1ccccc1"
scale_unit = "%"
meas_value = 113

[[record]]
molecule = "O=S(=O)(/N=C1C=C/C(=N\\S(=O)(=O)c2ccccc2)c2ccccc2\\1)c1ccccc1"
scale_unit = "%"
meas_value = 101

[[record]]
molecule = "CC(=O)OC[C@]1(C)C=C2C(=O)[C@](C)(O)C3(CC3)C(C)=C2[C@H]1OC(C)=O"
scale_unit = "%"
meas_value = 83.6

[[record]]
molecule = "O=C1NC(=O)C(CSc2ccccc2)(c2ccccc2)N1 (stereo unspecified)"
scale_unit = "%"
meas_value = 103

[[record]]
molecule = "Cc1ccc(S(=O)(=O)N2CCc3ccc(O)c4c3C2Cc2cc(Cl)ccc2-4)cc1 (stereo unspecified)"
scale_unit = "%"
meas_value = 91.9

[[record]]
molecule = "Cc1cc(NS(=O)(=O)c2ccc(NC(=O)COc3ccc(-c4cc5ccccc5[nH]4)cc3)cc2)no1"
scale_unit = "%"
meas_value = 39.2

[[record]]
molecule = "NC1=NC(c2ccccc2OS(=O)(=O)c2ccc(Br)cc2)n2c(nc3ccccc32)N1 (stereo unspecified)"
scale_unit = "%"
meas_value = 87.7

[[record]]
molecule = "Clc1ccc2c(c1)C[C@H]1C[C@@H](c3cccs3)N2O1"
scale_unit = "%"
meas_value = 106

[[record]]
molecule = "CCCCNNC(=O)c1ccc(Br)cc1"
scale_unit = "%"
meas_value = 75.1

[[record]]
molecule = "Nc1cccc2c(=S)c3ccccc3[nH]c12"
scale_unit = "%"
meas_value = 90.6

[[record]]
molecule = "N#Cc1ccc(C(F)(F)F)nc1N1CCC(C(=O)Nc2ccc(Cl)cc2)CC1"
scale_unit = "%"
meas_value = 80.3

[[record]]
molecule = "COC(=O)C1C2CC3c4[nH]c5cc(OC)ccc5c4CCN3CC2CC(OC2CCCCO2)C1OC (stereo unspecified)"
scale_unit = "%"
meas_value = 108

[[record]]
molecule = "COc1ccc(-c2c(-c3cc4c(c(OC)c3OC)OCO4)noc2N)cc1"
scale_unit = "%"
meas_value = 44.4

[[record]]
molecule = "COc1cc(/C=N/NC(=O)c2cnn3c2NC(c2ccccc2)C3)cc(OC)c1OC (stereo unspecified)"
scale_unit = "%"
meas_value = 87.4

